The reported measurements were obtained from patent US20230265151A1.

# MEASUREMENT_TARGET: human glucagon-like peptide-1 (GLP-1) receptor (human, UniProt P43220 24-463)
# ASSAY_NOTES: cell-based or functional assay
*1 amine or outer side, *2 acyl side, *3 side chain or, on linkers, in order; H or OH if unused. Where no end group is shown, it is not given here. Side-chain parts run from the residue outwards. [ ]: non-standard residue; d: D form. The star is where a group is joined. αMePhe(2-F) = C[C@](N)(Cc1ccccc1F)C(=O)O; C14 diacid = O=C(O)CCCCCCCCCCCCC(=O)*; εLys = N[C@@H](CCCCN[*:1])C(=O)[*:2]; αMeY = C[C@](N)(Cc1ccc(O)cc1)C(=O)O; αMeL = CC(C)C[C@](C)(N)C(=O)O; Orn = NCCC[C@H](N)C(=O)O; AEEA = NCCOCCOCC(=O)O; Aib = CC(C)(N)C(=O)O

BINDER	UNIT_OF_MEASURE	cAMP EC50
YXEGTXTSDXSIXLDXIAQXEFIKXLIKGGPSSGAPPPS (Aib2, αMeF(2F)6, OMeY10, αMeL13, Orn16, Aib20, K24(Z), αMeY25, K28(Z), C-terminal NH2; Z = AEEA2-(γ-Glu)-CO-(CH2)12-CO2H) [Example 262]	nM	0.472
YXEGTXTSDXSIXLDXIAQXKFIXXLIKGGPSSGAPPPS (Aib2, αMeF(2F)6, 2Nal10, αMeL13, Orn16, Aib20, K21(Z), D-Glu24, αMeY25, K28(Z), C-terminal NH2; Z = AEEA2-(γ-Glu)-(10-(4-carboxyphenoxy)decanoyl)) [Example 284]	nM	0.505
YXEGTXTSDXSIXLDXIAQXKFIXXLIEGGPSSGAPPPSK (Aib2, αMeF(2F)6, 2Nal10, αMeL13, Orn16, Aib20, K21(Z), D-Glu24, αMeY25, K40(Z), C-terminal NH2; Z = AEEA2-CO-(CH2)12-CO2H) [Example 258]	nM	0.653
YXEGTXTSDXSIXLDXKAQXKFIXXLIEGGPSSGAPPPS (Aib2, αMeF(2F)6, 4Pal10, αMeL13, Orn16, K17(Z), Aib20, K21(Z), D-Glu24, αMeY25, C-terminal NH2; Z = AEEA-(γ-Glu)-(4-(4-tert-butylphenyl)butanoyl)) [Example 207]	nM	0.209
Y[Aib]EGT[αMePhe(2-F)]TSDV[Aib]I[αMeL]LD[Orn]K([AEEA-AEEA-εLys-C14 diacid])AQ[Aib]EFI[dE][αMeY]LIEGGK([AEEA-AEEA-εLys-C14 diacid])SSGAPPPS-NH2 [Example 163]	nM	0.199
YXEGTXTSDXXIXLDXKAQXEFIXXLIEGGKSSGAPPPS (Aib2, αMeF(2F)6, 4Pal10, αMeS11, αMeL13, Orn16, K17(Z), Aib20, D-Glu24, αMeY25, K31(Z), C-terminal NH2; Z = AEEA2-(γ-Glu)-CO-(CH2)12-CO2H) [Example 213]	nM	2.14
YXEGTXTSDXXIXLDXKAQXEFIKXLIEGGPSSGAPPPS (Aib2, αMeF(2F)6, 4Pal10, αMeS11, αMeL13, Orn16, K17(Z), Aib20, K24(Z), αMeY25, C-terminal NH2; Z = AEEA2-(γ-Glu)-CO-(CH2)12-CO2H) [Example 214]	nM	0.618
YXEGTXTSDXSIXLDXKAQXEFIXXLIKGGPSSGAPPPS (Aib2, αMeF(2F)6, 2Nal10, αMeL13, Orn16, K17(Z), Aib20, D-Glu24, αMeY25, K28(Z), C-terminal NH2; Z = AEEA2-CO-(CH2)12-CO2H) [Example 256]	nM	0.249
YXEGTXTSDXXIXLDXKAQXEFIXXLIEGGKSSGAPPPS (Aib2, αMeF(2F)6, 4Pal10, Ac5c11, αMeL13, Orn16, K17(Z), Aib20, D-Glu24, αMeY25, K31(Z), C-terminal NH2; Z = AEEA2-(γ-Glu)-CO-(CH2)12-CO2H) [Example 211]	nM	3.55
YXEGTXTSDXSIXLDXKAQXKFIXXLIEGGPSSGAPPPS (Aib2, αMeF(2F)6, OMeY10, αMeL13, Orn16, K17(Z), Aib20, K21(Z), D-Glu24, αMeY25, C-terminal NH2; Z = AEEA2-(γ-Glu)-(10-(4-carboxyphenoxy)decanoyl)) [Example 277]	nM	0.225
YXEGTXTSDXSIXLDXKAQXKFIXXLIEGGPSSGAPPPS (Aib2, αMeF(2F)6, hTyr10, αMeL13, Orn16, K17(Z), Aib20, K21(Z), D-Glu24, αMeY25, C-terminal NH2; Z = AEEA2-CO-(CH2)12-CO2H) [Example 272]	nM	0.388
YXEGTXTSDVSIXLDXKAQXEFIXXLIEGGKSSGAPPPS (Aib2, αMeF6, αMeL13, Orn16, K17(Z), Aib20, D-Glu24, αMeY25, K31(Z), C-terminal NH2; Z = AEEA2-(γ-Glu)-CO-(CH2)12-CO2H) [Example 179]	nM	0.461
YXEGTXTSDXSIXLDXIAQXEFIKXLIEGGPSSGAPPPSK (Aib2, αMeF(2F)6, 4Pal10, αMeL13, Orn16, Aib20, K24(Z), αMeY25, K40(Z), C-terminal NH2; Z = AEEA2-CO-(CH2)12-CO2H) [Example 194]	nM	0.317
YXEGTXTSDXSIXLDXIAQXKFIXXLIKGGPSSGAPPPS (Aib2, αMeF(2F)6, OMeY10, αMeL13, Orn16, Aib20, K21(Z), D-Glu24, αMeY25, K28(Z), C-terminal NH2; Z = AEEA2-(γ-Glu)-CO-(CH2)12-CO2H) [Example 263]	nM	0.294
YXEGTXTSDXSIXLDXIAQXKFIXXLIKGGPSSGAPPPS (Aib2, αMeF(2F)6, 4Pal10, αMeL13, Orn16, Aib20, K21(Z), D-Glu24, αMeY25, K28(Z), C-terminal NH2; Z = AEEA2-(γ-Glu)-(10-(4-carboxyphenoxy)decanoyl)) [Example 275]	nM	0.737
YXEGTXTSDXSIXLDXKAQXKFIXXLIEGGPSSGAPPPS (Aib2, αMeF(2F)6, Nle10, αMeL13, Orn16, K17(Z), Aib20, K21(Z), D-Glu24, αMeY25, C-terminal NH2; Z = AEEA2-CO-(CH2)12-CO2H) [Example 271]	nM	0.494
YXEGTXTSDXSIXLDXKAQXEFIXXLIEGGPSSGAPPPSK (Aib2, αMeF(2F)6, 2Nal10, αMeL13, Orn16, K17(Z), Aib20, D-Glu24, αMeY25, K40(Z), C-terminal NH2; Z = AEEA2-(γ-Glu)-CO-(CH2)12-CO2H) [Example 251]	nM	0.338
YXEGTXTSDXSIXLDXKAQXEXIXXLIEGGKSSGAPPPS (Aib2, αMeF6, 4Pal10, αMeL13, Orn16, K17(Z), Aib20, αMeF22, D-Glu24, αMeY25, K31(Z), C-terminal NH2; Z = AEEA2-(γ-Glu)-CO-(CH2)10-CH3) [Example 173]	nM	0.343
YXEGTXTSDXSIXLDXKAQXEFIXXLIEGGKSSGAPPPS (Aib2, αMeF(2F)6, 4Pal10, αMeL13, Orn16, K17(Z), aMeF20, D-Glu24, αMeY25, K31(Z), C-terminal NH2; Z = AEEA2-(γ-Glu)-CO-(CH2)12-CO2H) [Example 169]	nM	1.23
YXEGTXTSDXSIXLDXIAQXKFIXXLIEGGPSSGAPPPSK (Aib2, αMeF(2F)6, OMeY10, αMeL13, Orn16, Aib20, K21(Z), D-Glu24, αMeY25, K40(Z), C-terminal NH2; Z = AEEA2-(γ-Glu)-CO-(CH2)12-CO2H) [Example 264]	nM	0.413
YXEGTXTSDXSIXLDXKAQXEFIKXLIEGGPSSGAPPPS (Aib2, aMeF(2F)6, 4Pal10, aMeL13, Orn16, K17(Z), Aib20, K24(Z), αMeY25, C-terminal NH2; Z = eK-gE-C14_OH (so in the source)) [Example 161]	nM	0.203
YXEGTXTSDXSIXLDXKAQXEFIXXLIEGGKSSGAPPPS (Aib2, αMeF6, 4Pal10, αMeL13, Orn16, K17(Z), Aib20, D-Glu24, αMeY25, K31(Z), C-terminal NH2; Z = AEEA2-(γ-Glu)-CO-(CH2)10-CH3) [Example 172]	nM	0.141
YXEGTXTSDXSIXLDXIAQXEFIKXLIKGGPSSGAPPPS (Aib2, αMeF(2F)6, 4Pal10, αMeL13, Orn16, Aib20, K24(Z), αMeY25, K28(Z), C-terminal NH2; Z = AEEA3-(γ-Glu)-CO-(CH2)12-CO2H) [Example 226]	nM	0.611
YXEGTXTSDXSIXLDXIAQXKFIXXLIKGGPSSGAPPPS (Aib2, αMeF(2F)6, OMeY10, αMeL13, Orn16, Aib20, K21(Z), D-Glu24, αMeY25, K28(Z), C-terminal NH2; Z = AEEA2-(γ-Glu)-(10-(4-carboxyphenoxy)decanoyl)) [Example 280]	nM	0.346
